# tgt: IDO (Homo sapiens (Human), UniProt P14902)
# Sequence (P14902 whole entry): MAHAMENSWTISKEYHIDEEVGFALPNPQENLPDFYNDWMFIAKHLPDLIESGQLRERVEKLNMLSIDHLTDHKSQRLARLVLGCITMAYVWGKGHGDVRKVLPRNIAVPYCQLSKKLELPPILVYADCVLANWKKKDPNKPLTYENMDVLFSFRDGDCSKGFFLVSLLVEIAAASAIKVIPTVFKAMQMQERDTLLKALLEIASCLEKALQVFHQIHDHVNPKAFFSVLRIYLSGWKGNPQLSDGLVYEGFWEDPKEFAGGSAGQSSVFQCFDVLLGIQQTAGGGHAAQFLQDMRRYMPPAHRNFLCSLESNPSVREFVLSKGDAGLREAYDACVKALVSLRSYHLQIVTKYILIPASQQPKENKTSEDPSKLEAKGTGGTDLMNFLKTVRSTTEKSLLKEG
# method-description: LLE_IDO_ABS_DR (IDO assay, method not described)
result-type: IC50 (nM)

# count of solved cases: 3
Cc1cccc(NC(=O)Nc2cc(-c3ccccc3-c3nnn[nH]3)cc(CC3CC3)c2Oc2ccccc2)c1 [Example 323]
40
CC(C)(C)c1ccccc1Oc1ccc(-c2ccccc2-c2nnn[nH]2)cc1NC(=O)Nc1ccccc1F [Example 190]
450
CCCOc1c(/C=C/C=C(F)F)cc(-c2cc(F)ccc2C(=O)O)cc1NC(=O)Nc1ccc(C)cc1 [Example 33]
110

(a) CCCOc1c(CCC)cc(-c2ccccc2C(=O)O)cc1NC(=O)Nc1ccc(C)cc1 [Example 17]
(b) COc1ccc(-c2ccc(Oc3cccc(C(C)(C)C)c3)c(NC(=O)Nc3ccc(C)cc3)c2)cc1C(=O)O [Example 113]
(c) COc1ccc(-c2ccc(Oc3cccc(C(C)(C)C)c3)c(NC(=O)Nc3ccccc3C)c2)cc1C(=O)O [Example 111]
(d) CCCc1ccccc1Oc1ccc(-c2ccc(OC)c(C(=O)O)c2)cc1NC(=O)Nc1cccc(C)c1 [Example 76]
(e) CCCOc1c(CCCc2ccccc2)cc(-c2ccccc2-c2nnn[nH]2)cc1NC(=O)Nc1ccccc1F [Example 39]
Query: Please list these compounds in decreasing order of IC50. Rank them, then answer with their labels in that order.
Response: d, b, c, a, e

(A) Cc1ccccc1NC(=O)Nc1cc(-c2ccccc2C(=O)O)ccc1Oc1ccccc1C(C)(C)C [Example 156]
(B) COc1ccc(-c2ccc(Oc3cccc(C)c3C)c(NC(=O)Nc3cccc(C)c3)c2)cc1C(=O)O [Example 122]
(C) COc1ccc(-c2ccc(Oc3ccccc3C(C)(C)C)c(NC(=O)Nc3ccc(Cl)cc3Cl)c2)cc1C(=O)O [Example 103]
Query: Sort ascending by IC50. Rank them, then answer with their labels in that order.
Response: B, C, A
(B: 250 nM, C: 470 nM, A: 680 nM)

* * *

# tgt: IDO (Homo sapiens (Human), UniProt P14902)
# method-description: LLE_IDO_ABS_DR (IDO assay, method not described)
result-type: IC50 (nM)

# count of solved cases: 9
Cc1ccc(NC(=O)Nc2cc(-c3cc(F)ccc3C(=O)O)ccc2OC(CCC(F)(F)F)c2ccc(Cl)cc2)cc1 (stereo not shown)
200
Cc1ccc(NC(=O)Nc2cc(-c3ccccc3C(=O)O)ccc2Oc2ccccc2C(C)(C)C)cc1
70
COc1ccc(-c2ccc(Oc3cccc4c3CCCC4)c(NC(=O)Nc3ccccc3C)c2)cc1C(=O)O
200
CCCNC(=O)Nc1cc(-c2ccc(OC)c(C(=O)O)c2)ccc1Oc1cccc2c1CCCC2
1060
Cc1ccc(NC(=O)Nc2cc(-c3cc(F)ccc3C(=O)O)ccc2OC(CCC(F)(F)F)c2ccccc2Cl)cc1 (stereo not shown)
390
CCCOc1c(/C=C/CC(F)(F)F)cc(-c2ccccc2-c2nnn[nH]2)cc1NC(=O)Nc1ccc(C)cc1
30
COc1ccc(-c2ccc(Oc3ccccc3C(C)(C)C)c(NC(=O)Nc3cccc(C)c3)c2)cc1C(=O)O
390
Cc1ccc(NC(=O)Nc2cc(-c3cc(F)ccc3C(=O)O)ccc2OC(CCC(F)(F)F)c2ccccc2)cc1 (stereo not shown)
90
COc1cc(C(=O)O)c(-c2ccc(Oc3ccccc3C(C)(C)C)c(NC(=O)Nc3ccc(C)cc3)c2)cc1OC
460

(a) Cc1ccc(NC(=O)Nc2cc(-c3ccccc3-c3nnn[nH]3)cc(CC3CC3)c2OCCC(F)(F)F)cc1
(b) CCCCC(Oc1ccc(-c2cc(F)ccc2C(=O)O)cc1NC(=O)Nc1ccc(C)cc1)C1CCCCC1 (stereo not shown)
(c) CC/C=C/Cc1cc(-c2ccccc2-c2nnn[nH]2)cc(NC(=O)Nc2ccccc2F)c1OCCC
(d) Cc1cccc(NC(=O)Nc2cc(-c3ccc(C(=O)O)cc3)ccc2Oc2ccccc2C(C)(C)C)c1
Query: Sort ascending by IC50. Rank them, then answer with their labels in that order.
Response: c, a, b, d
(c: 5.56 nM, a: 330 nM, b: 1100 nM, d: 8150 nM)

* * *

# tgt: UniProtKB P14902
# method-description: LLE_IDO_ABS_DR (IDO assay, method not described)
result-type: IC50 (nM)

Cc1ccc(NC(=O)Nc2cc(-c3ccc(C(=O)O)c(Cl)c3)ccc2Oc2ccccc2C(C)(C)C)cc1
1250
COc1ccc(-c2ccc(O[C@@H]3CCCC[C@H]3C)c(NC(=O)Nc3ccccc3Cl)c2)cc1C(=O)O (relative stereo)
1460
CCCCNC(=O)Nc1cc(-c2ccccc2-c2nnn[nH]2)ccc1Oc1ccccc1C(C)(C)C
1210

* * *

# tgt: Human IDO1 (Homo sapiens (Human))
# method-description: IDO Kynurenine Assay with Human IDO1/HEK293 Cells
# test-conditions: HEK293 cells with human IDO1; read-out: HEK human IDO-1 (IC50)
result-type: IC50 (nM)

COc1ccc(-c2ccc(Oc3ccccc3C3CC3)c(NC(=O)Nc3ccc(C)cc3)c2)cc1C(=O)O
3290
COc1ccc(-c2ccc(Oc3cccc4c3CCCC4)c(NC(=O)Nc3ccccc3)c2)cc1C(=O)O
1120
CCCOc1c(C/C=C/C(F)(F)F)cc(-c2ccccc2-c2nnn[nH]2)cc1NC(=O)Nc1ccc(C)cc1
10

(1) CCCOc1c(CCCC(F)(F)F)cc(-c2ccccc2-c2nnn[nH]2)cc1NC(=O)Nc1ccc(C)cc1
(2) O=C(Nc1ccc(C2CC2)cc1)Nc1cc(-c2ccccc2-c2nnn[nH]2)cc(CC2CC2)c1OCCC(F)(F)F
Query: Between 1 and 2 , which one shows the smaller IC50 number? # respond with the chosen item's label
Response: 1

(1) COc1ccc(-c2ccc(Oc3cccc4ccccc34)c(NC(=O)Nc3ccc(C)cc3)c2)cc1C(=O)O
(2) C=CC(c1ccccc1)c1cc(-c2ccccc2-c2nnn[nH]2)cc(NC(=O)Nc2ccc(C)cc2)c1OCCC (racemic)
Query: Between 1 and 2 , which one shows the smaller IC50 number? # respond with the chosen item's label
Response: 2
(2: 30 nM, 1: 770 nM)

(A) COc1ccc(-c2ccc(Oc3ccccc3C(C)(C)C)c(NC(=O)Nc3ccccc3C(F)(F)F)c2)cc1C(=O)O
(B) COc1ccc(-c2ccc(Oc3cccc4c3CCCC4)c(NC(=O)Nc3ccccc3Cl)c2)cc1C(=O)O
(C) COc1ccc(-c2ccc(Oc3cccc4c3OC(C)(C)C4)c(NC(=O)Nc3ccc(C)cc3)c2)cc1C(=O)O
(D) CC(C)(C)c1ccccc1Oc1ccc(-c2cccc(C(=O)O)c2)cc1NC(=O)Nc1ccc(OC(F)F)cc1
(E) COc1ccc(-c2ccc(Oc3ccc4c(c3)CCCC4)c(NC(=O)Nc3ccc(C)cc3)c2)cc1C(=O)O
Query: Please list these compounds in decreasing order of IC50. Rank them, then answer with their labels in that order.
Response: D, C, E, A, B
(D: 7500 nM, C: 5170 nM, E: 2420 nM, A: 540 nM, B: 120 nM)

(1) Cc1cccc(NC(=O)Nc2cc(-c3cccc(C(=O)O)c3)ccc2Oc2ccccc2C(C)(C)C)c1
(2) CCCOc1c(Br)cc(-c2ccccc2-c2nnn[nH]2)cc1NC(=O)Nc1ccc(C)cc1
(3) CCOc1ccc(-c2ccc(Oc3ccccc3C(C)(C)C)c(NC(=O)Nc3ccc(C)cc3)c2)cc1C(=O)O
(4) CCCOc1c(CCC)cc(-c2ccccc2-c2nnn[nH]2)cc1NC(=O)Nc1ccc(C)cc1
(5) CC/C=C/Cc1cc(-c2ccccc2-c2nnn[nH]2)cc(NC(=O)Nc2ccccc2F)c1OCCC
Query: Sort ascending by IC50. Rank them, then answer with their labels in that order.
Response: 5, 4, 2, 3, 1
(5: 6.49 nM, 4: 30 nM, 2: 60 nM, 3: 1830 nM, 1: 7650 nM)

* * *

# tgt: IDO (Homo sapiens (Human))
# method-description: LLE_IDO_ABS_DR (IDO assay, method not described)
result-type: IC50 (nM)

COc1ccc(-c2ccc(Oc3cccc4c3CCCC4)c(NC(=O)Nc3ccccc3Cl)c2)cc1C(=O)O [Example 114]
100
COc1ccc(-c2ccc(Oc3cccc4c3OC(C)(C)C4)c(NC(=O)Nc3ccccc3C)c2)cc1C(=O)O [Example 139]
2640
CCCc1ccccc1Oc1ccc(-c2ccc(OC)c(C(=O)O)c2)cc1NC(=O)Nc1ccccc1Cl [Example 74]
520
COc1ccc(-c2ccc(Oc3cccc4ccccc34)c(NC(=O)Nc3cccc(C)c3)c2)cc1C(=O)O [Example 130]
480
CCCC(CCC)Oc1ccc(-c2ccccc2-c2nn[nH]n2)cc1NC(=O)Nc1ccc(C)cc1 [Example 13]
30
Cc1cccc(NC(=O)Nc2cc(-c3ccccc3-c3nnn[nH]3)cc(CC3CC3)c2OCCC(F)(F)F)c1 [Example 315]
80
COc1ccc(-c2ccc(Oc3cccc4c3CCC4)c(NC(=O)Nc3ccccc3C)c2)cc1C(=O)O [Example 143]
200

(A) Cc1ccc(NC(=O)Nc2cc(-c3ccc(C(F)(F)F)cc3C(=O)O)ccc2Oc2ccccc2C(C)(C)C)cc1 [Example 177]
(B) COc1ccc(-c2ccc(Oc3ccccc3Cl)c(NC(=O)Nc3ccccc3Cl)c2)cc1C(=O)O [Example 49]
Query: Between A and B , which one shows the smaller IC50 number? # respond with the chosen item's label
Response: A
